tgt: VchCA-α (Vibrio cholerae, UniProt Q9KMP6)
Construct: gene VC_A0274
Sequence (Q9KMP6 21-239 limits assumed): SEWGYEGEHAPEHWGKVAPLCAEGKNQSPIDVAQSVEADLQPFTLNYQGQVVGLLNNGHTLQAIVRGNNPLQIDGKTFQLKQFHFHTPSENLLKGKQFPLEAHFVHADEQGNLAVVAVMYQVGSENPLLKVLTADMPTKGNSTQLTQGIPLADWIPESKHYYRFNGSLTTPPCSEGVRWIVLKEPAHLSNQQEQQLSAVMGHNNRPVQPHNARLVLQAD
experiment: biochemical
The threshold is 0.04 µM. Values of Ki beneath it are tagged 1 (yes); values meeting or exceeding it are tagged 0 (no).

Study these solved cases before continuing.
[
  {
    "compound": "COc1ccc([Se]CC(=O)Nc2ccc([Se]Cc3ccc(S(N)(=O)=O)cc3)cc2)cc1",
    "class_name": "1 (yes)"
  },
  {
    "compound": "CC(O)CSCC(=O)Nc1ccc(S(N)(=O)=O)cc1 (stereo not drawn)",
    "class_name": "0 (no)"
  },
  {
    "compound": "Cc1ccc([Se]CC(=O)Nc2ccc(S(N)(=O)=O)cc2)cc1",
    "class_name": "1 (yes)"
  }
]

Regarding NS(=O)(=O)c1ccc(C[Se]c2ccc(NC(=O)CSc3ccc(Br)cc3)cc2)cc1 , kindly confirm whether its Ki is beneath 0.04 µM.
0 (no)

// query: NS(=O)(=O)c1ccc(CCNC(=O)C[Se]c2ccccc2)cc1
0 (no)

// query: Cc1ccc(S(=O)(=O)N[C@H](C[Se]CC(=O)NCCc2ccc(S(N)(=O)=O)cc2)C(C)C)cc1
0 (no)

###

tgt: VchCA-β (Vibrio cholerae, UniProt A0A086SLX8)
Construct: gene can
Sequence (A0A086SLX8 1-222): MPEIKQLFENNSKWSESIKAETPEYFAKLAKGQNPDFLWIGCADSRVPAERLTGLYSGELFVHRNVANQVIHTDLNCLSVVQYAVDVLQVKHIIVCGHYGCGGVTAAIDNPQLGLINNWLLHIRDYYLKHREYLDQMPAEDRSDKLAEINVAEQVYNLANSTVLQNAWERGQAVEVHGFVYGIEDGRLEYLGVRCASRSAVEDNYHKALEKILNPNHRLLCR
experiment: biochemical
Overview of recorded pKi for various compounds
In simple prose, pKi is minus the logarithm base ten of a concentration in moles per litre.

The cases that follow already have their pKi on record.
[
  {
    "compound": "Cc1ccc(S(=O)(=O)N[C@H](C[Se]CC(=O)NCCc2ccc(S(N)(=O)=O)cc2)C(C)C)cc1 [8d]",
    "tgt": "VchCA-β (Vibrio cholerae, UniProt A0A086SLX8)",
    "pKi": 6.08
  },
  {
    "compound": "NS(=O)(=O)c1ccc(CCNC(=O)C[Se]c2ccccc2)cc1 [8a]",
    "tgt": "VchCA-β (Vibrio cholerae, UniProt A0A086SLX8)",
    "pKi": 5.18
  },
  {
    "compound": "C=C(C)[C@H]1CCC(C)(O)C([Se]CC(=O)NCCc2ccc(S(N)(=O)=O)cc2)C1 (stereo partly drawn) [8e]",
    "tgt": "VchCA-β (Vibrio cholerae, UniProt A0A086SLX8)",
    "pKi": 6.51
  },
  {
    "compound": "NS(=O)(=O)c1ccc(C[Se]c2ccc(NC(=O)CSc3ccc(Br)cc3)cc2)cc1 [5b]",
    "tgt": "VchCA-β (Vibrio cholerae, UniProt A0A086SLX8)",
    "pKi": 6.24
  },
  {
    "compound": "CC(O)CSCC(=O)Nc1ccc(S(N)(=O)=O)cc1 (stereo not drawn) [3e]",
    "tgt": "VchCA-β (Vibrio cholerae, UniProt A0A086SLX8)",
    "pKi": 5.18
  }
]

Form field: reported pKi of Cc1ccc([Se]CC(=O)Nc2ccc(S(N)(=O)=O)cc2)cc1 [7b]
6.12

###

tgt: BpsCA-β (Burkholderia pseudomallei)
Construct: gene BPSL0372
Sequence (Q63Y17 1-256): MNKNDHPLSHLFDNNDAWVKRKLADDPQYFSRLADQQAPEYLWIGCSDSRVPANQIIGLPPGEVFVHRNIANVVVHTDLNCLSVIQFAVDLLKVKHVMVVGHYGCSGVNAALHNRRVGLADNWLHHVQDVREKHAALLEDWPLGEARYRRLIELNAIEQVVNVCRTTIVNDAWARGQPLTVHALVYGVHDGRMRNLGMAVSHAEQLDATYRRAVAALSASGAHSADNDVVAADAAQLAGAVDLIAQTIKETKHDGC
experiment: biochemical
protocol_conditions: read-out: BpsCA-β; inhibitor
pKi: −log10 of the molar value.
metric_name: pKi

Form field: reported pKi of Cc1ccccc1[Se]CC(=O)Nc1ccc(S(N)(=O)=O)cc1 [7c]
< 5.00
